experimental-target: 5-LO in A23187-stimulated human PMNL (Homo sapiens, UniProt P09917)
Construct: Freshly isolated PMNL (1 × 10^6 cells/mL) in PBS buffer pH 7.4; endogenous in cells
Sequence (P09917 1-674): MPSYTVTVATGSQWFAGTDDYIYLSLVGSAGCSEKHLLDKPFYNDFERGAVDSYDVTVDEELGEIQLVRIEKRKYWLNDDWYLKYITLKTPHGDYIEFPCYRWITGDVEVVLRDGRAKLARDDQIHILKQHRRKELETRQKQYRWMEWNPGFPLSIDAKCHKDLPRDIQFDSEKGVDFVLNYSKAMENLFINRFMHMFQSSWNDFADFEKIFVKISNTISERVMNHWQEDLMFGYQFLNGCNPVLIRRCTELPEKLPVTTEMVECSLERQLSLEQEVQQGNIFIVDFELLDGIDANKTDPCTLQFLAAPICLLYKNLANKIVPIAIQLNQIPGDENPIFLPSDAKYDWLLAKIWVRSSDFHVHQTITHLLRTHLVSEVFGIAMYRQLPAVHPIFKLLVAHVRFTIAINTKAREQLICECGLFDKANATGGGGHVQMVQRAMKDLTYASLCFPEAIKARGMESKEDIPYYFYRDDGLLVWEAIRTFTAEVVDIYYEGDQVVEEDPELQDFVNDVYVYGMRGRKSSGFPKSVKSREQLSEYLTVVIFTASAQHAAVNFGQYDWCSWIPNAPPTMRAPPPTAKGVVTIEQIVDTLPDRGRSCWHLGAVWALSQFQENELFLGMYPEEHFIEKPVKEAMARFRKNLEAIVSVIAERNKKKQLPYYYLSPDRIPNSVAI
assay-procedure: 5-Lipoxygenase inhibition in a cell-based assay (PMNL)
condition-context: activated PMNL
Can you tell me pIC50 for the items I'm about to list?
Value format note: pIC50 is -log10 of concentration (mol/L); just state the number.

**Q:** Returns the measured pIC50 for the input compound. Input: Oc1ccc(/C=C/c2nc3ccccc3s2)cc1O [BZTst4]
**A:** 6.15

**Q:** Let us now turn to Oc1ccc(/C=C/c2nc3ccccc3s2)cc1 [BZTst2]
**A:** 5.54

**Q:** Let us now turn to COc1cc(/C=C/c2nc3ccccc3s2)ccc1O [BZTst6]
**A:** 6.02

---

experimental-target: Human recombinant 5-LO (Homo sapiens, UniProt P09917)
Construct: made in house
assay-procedure: 5-Lipoxygenase inhibition in a cell-free assay
Assay type: biochemical
condition-context: 10 µM; % relative to vehicle (DMSO); read-out: 5-LO Residual Activity (Cell-Free, 10 µM)
Procedure: Human recombinant 5-LO was expressed and isolated as described before, and immediately used for activity assays after isolation. The 5-LO (0.5 µg, in 1 mL PBS pH 7.4 containing 1 mM EDTA) was pre-incubated with the test compounds for 10 min at 4 °C and pre-warmed for 30 s at 37 °C. […] Formed 5-LO products (trans-LTB4, epi-trans-LTB4, and 5-HETE) were extracted using Sep-Pak C18 35 cc Vac Cartridges and analysed by UPLC-MS/MS as previously described.
assay-endpoint: remaining activity at 10 µM

**Q:** Returns the measured remaining activity at 10 µM for the input molecule. Input: Oc1ccc(/C=C/c2nc3ccccc3s2)cc1
**A:** 47.3%

**Q:** Let us now turn to Oc1ccc(/C=C/c2nc3ccccc3s2)cc1O
**A:** 6.85%

**Q:** Let us now turn to COc1ccc(/C=C/c2nc3ccccc3s2)cc1 [BZTst3, (E)-2-(4-methoxystyryl)benzo[d]thiazole]
**A:** 46.7%

**Q:** Let us now turn to COc1ccc(/C=C/c2nc3ccccc3s2)cc1O
**A:** 34.8%

**Q:** Let us now turn to COc1cc(/C=C/c2nc3ccccc3s2)ccc1O
**A:** 6.84%

**Q:** Let us now turn to C(=C\c1nc2ccccc2s1)/c1ccccc1 [BZTst1, (E)-2-styrylbenzo[d]thiazole]
**A:** 72%
